The entries below are paired with their reported inhibition at 0.2 µM.
- tested target: GSPT1 protein (Homo sapiens, UniProt P15170+Q96SW2)
- Construct: Whole cell lysates were prepared; endogenous in cells; host or cells: KG-1 cells
- Sequence (P15170 whole entry): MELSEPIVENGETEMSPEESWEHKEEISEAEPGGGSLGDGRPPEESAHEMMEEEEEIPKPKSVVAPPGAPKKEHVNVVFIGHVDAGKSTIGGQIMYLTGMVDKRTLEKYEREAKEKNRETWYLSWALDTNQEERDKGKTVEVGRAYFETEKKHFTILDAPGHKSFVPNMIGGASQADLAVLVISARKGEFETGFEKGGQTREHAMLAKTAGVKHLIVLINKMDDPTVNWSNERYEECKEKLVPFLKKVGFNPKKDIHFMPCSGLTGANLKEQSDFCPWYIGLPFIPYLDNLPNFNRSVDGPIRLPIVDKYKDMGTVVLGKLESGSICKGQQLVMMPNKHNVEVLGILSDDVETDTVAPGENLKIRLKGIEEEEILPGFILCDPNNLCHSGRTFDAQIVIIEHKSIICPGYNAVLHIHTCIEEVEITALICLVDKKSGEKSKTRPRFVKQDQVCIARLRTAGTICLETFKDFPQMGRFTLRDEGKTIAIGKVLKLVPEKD
- Sequence (Q96SW2 whole entry): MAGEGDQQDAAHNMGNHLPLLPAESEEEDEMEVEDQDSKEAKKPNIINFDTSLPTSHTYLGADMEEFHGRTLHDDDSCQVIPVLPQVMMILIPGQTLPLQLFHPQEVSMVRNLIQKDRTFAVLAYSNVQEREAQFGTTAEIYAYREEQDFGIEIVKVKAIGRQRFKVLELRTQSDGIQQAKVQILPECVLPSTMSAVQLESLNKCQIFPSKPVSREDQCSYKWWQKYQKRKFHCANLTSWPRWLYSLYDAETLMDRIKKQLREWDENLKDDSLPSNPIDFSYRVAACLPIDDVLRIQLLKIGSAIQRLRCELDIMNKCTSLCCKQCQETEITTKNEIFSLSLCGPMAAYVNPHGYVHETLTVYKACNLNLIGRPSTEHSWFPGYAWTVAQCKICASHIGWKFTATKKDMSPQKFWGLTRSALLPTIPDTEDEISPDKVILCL
- Sequence (Q16531 whole entry partner): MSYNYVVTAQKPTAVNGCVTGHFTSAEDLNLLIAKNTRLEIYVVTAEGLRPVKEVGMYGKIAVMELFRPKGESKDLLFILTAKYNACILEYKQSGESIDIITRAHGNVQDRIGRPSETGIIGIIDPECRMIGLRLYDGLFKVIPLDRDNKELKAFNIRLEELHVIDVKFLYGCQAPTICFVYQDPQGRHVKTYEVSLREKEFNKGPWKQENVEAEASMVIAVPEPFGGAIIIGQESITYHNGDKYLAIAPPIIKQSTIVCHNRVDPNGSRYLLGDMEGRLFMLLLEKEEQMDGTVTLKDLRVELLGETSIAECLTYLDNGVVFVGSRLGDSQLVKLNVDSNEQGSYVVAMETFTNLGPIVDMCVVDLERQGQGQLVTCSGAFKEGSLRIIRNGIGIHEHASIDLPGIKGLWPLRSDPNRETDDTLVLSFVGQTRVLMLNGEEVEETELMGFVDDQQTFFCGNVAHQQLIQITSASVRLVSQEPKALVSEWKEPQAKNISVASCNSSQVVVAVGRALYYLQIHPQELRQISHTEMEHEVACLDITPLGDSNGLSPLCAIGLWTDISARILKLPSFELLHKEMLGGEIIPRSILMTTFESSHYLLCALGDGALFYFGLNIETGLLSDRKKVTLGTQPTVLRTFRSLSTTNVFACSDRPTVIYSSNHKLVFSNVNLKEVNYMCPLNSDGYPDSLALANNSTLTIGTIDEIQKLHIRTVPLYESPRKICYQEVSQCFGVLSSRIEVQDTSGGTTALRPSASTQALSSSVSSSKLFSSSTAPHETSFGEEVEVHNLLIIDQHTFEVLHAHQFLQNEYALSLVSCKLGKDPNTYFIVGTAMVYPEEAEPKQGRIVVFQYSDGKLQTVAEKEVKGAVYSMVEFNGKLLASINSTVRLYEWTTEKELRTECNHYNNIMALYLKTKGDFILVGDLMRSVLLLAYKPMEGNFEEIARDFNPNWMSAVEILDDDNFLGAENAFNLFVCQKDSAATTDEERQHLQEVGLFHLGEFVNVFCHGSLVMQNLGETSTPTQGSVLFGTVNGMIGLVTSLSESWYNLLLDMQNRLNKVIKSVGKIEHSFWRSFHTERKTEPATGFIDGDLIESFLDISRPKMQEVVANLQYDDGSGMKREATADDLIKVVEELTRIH
- procedure summary: Degradation of GSPT1 in KG-1 cells (Western blot)
- Assay type: cell-based
- experimental context: compound concentration 200 nM, 4 h incubation
- Experimental: KG-1 cells were grown in an IMDM culture medium (containing 20% FBS). After centrifugation and counting, the cell concentration was adjusted. The cells were plated onto 6-well plates at 10^6 cells/well, with 1350 μL per well. 150 μL of DMSO and the test compounds of the present disclosure (compound concentration: 200 nM) were added. The plates were incubated in an incubator at 37° C. with 5% CO2 for 4 h. […] Signals were detected using a MINICHEMITM imaging system. […]

compound: O=C1CCC(n2ncc3cc(CNC(=O)C4=Cc5ccc(F)cc5OC4)ccc3c2=O)C(=O)N1 (stereo not shown) [Compound T-4]
tested target: GSPT1 protein (Homo sapiens, UniProt P15170+Q96SW2)
readout: inhibition at 0.2 µM
result: 30 to 70%

compound: O=C1CCC(n2ncc3cc(CNC(=O)C4=Cc5c(F)cccc5OC4)ccc3c2=O)C(=O)N1 (stereo not shown) [Compound T-2]
tested target: GSPT1 protein (Homo sapiens, UniProt P15170+Q96SW2)
readout: inhibition at 0.2 µM
result: ≥ 70%

compound: O=C1CCC(n2ncc3cc(CNC(=O)C4=Cc5cccc(OC(F)(F)F)c5OC4)ccc3c2=O)C(=O)N1 (stereo not shown) [Compound T-9]
tested target: GSPT1 protein (Homo sapiens, UniProt P15170+Q96SW2)
readout: inhibition at 0.2 µM
result: 30 to 70%

compound: O=C1CCC(n2ncc3cc(NC(=O)C4=Cc5cc(OC(F)(F)F)ccc5OC4)ccc3c2=O)C(=O)N1 (stereo not shown) [Compound T-27]
tested target: GSPT1 protein (Homo sapiens, UniProt P15170+Q96SW2)
readout: inhibition at 0.2 µM
result: < 30%

compound: Cc1cc2c(cc1Cl)C=C(C(=O)NCc1ccc3c(=O)n(C4CCC(=O)NC4=O)ncc3c1)CO2 (stereo not shown) [Compound T-20]
tested target: GSPT1 protein (Homo sapiens, UniProt P15170+Q96SW2)
readout: inhibition at 0.2 µM
result: 30 to 70%

Query: I'm curious: which inhibition at 0.2 µM was measured for O=C1CCC(n2ncc3cc(NC(=O)C4=Cc5cccc(OC(F)(F)F)c5OC4)ccc3c2=O)C(=O)N1 (stereo not shown) [Compound T-28] tested on GSPT1 protein (Homo sapiens, UniProt P15170+Q96SW2)?
Result: 30 to 70%

Query: I'm curious: which inhibition at 0.2 µM was measured for O=C1CCC(n2ncc3cc(CNC(=O)C4=Cc5cc(OC(F)(F)F)ccc5OC4)ccc3c2=O)C(=O)N1 (stereo not shown) [Compound T-10] tested on GSPT1 protein (Homo sapiens, UniProt P15170+Q96SW2)?
Result: ≥ 70%

Query: I'm curious: which inhibition at 0.2 µM was measured for O=C1CCC(n2ncc3cc(CNC(=O)C4=Cc5c(cccc5C(F)(F)F)OC4)ccc3c2=O)C(=O)N1 (stereo not shown) [Compound T-15] tested on GSPT1 protein (Homo sapiens, UniProt P15170+Q96SW2)?
Result: ≥ 70%

Query: I'm curious: which inhibition at 0.2 µM was measured for O=C1CCC(n2ncc3cc(NC(=O)C4=Cc5ccccc5OC4)ccc3c2=O)C(=O)N1 (stereo not shown) [Compound T-25] tested on GSPT1 protein (Homo sapiens, UniProt P15170+Q96SW2)?
Result: < 30%

Query: I'm curious: which inhibition at 0.2 µM was measured for COc1cccc2c1C=C(C(=O)NCc1ccc3c(=O)n(C4CCC(=O)NC4=O)ncc3c1)CO2 (stereo not shown) [Compound T-7] tested on GSPT1 protein (Homo sapiens, UniProt P15170+Q96SW2)?
Result: ≥ 70%

Query: I'm curious: which inhibition at 0.2 µM was measured for COc1cccc2c1OCC(C(=O)NCc1ccc3c(=O)n(C4CCC(=O)NC4=O)ncc3c1)=C2 (stereo not shown) [Compound T-6] tested on GSPT1 protein (Homo sapiens, UniProt P15170+Q96SW2)?
Result: 30 to 70%

Query: I'm curious: which inhibition at 0.2 µM was measured for COc1ccc2c(c1)C=C(C(=O)NCc1ccc3c(=O)n(C4CCC(=O)NC4=O)ncc3c1)CO2 (stereo not shown) [Compound T-8] tested on GSPT1 protein (Homo sapiens, UniProt P15170+Q96SW2)?
Result: 30 to 70%

Query: I'm curious: which inhibition at 0.2 µM was measured for O=C1CCC(n2ncc3cc(CNC(=O)C4=Cc5cccc(F)c5OC4)ccc3c2=O)C(=O)N1 (stereo not shown) [Compound T-5] tested on GSPT1 protein (Homo sapiens, UniProt P15170+Q96SW2)?
Result: 30 to 70%
